The measured values listed here are drawn from patent US10485235B2.

Quick list: Plant response rating, Blackgrass per entry.
Test system: blackgrass (Alopecurus myosuroides)
procedure_text: Test A postemergence, blackgrass
Assay type: in vivo
experimental_parameters: 125 g ai/ha, postemergence; 0 to 100 scale, 0 is no effect, 100 is complete control; approximately 10 days
reported_property: Plant response rating, Blackgrass

compound | recorded_result
N#CCCCOc1c(C#N)cccc1Oc1ncc(F)cn1 [Compound 37] | 10
O=C(COc1c(Br)cccc1Oc1ncc(Cl)cn1)C(F)(F)C(F)(F)F [Compound 73] | 20
N#Cc1cccc(Oc2ncc(Cl)cn2)c1OCc1ccc(Cl)cc1 [Compound 3] | 20
FC(F)(F)CCCOc1c(I)cccc1Oc1ncc(Cl)cn1 [Compound 60] | 50
CCC(=O)COc1c(C#N)cccc1Oc1ncc(Cl)cn1 [Compound 75] | 0
Fc1cccc(Oc2ncc(Cl)cn2)c1OC/C=C/Cl [Compound 9] | 10
N#Cc1cccc(Oc2ncc(Cl)cn2)c1OCc1ccc(Cl)cn1 [Compound 6] | 10
FC(F)(F)CCOc1c(Cl)cccc1Oc1ncc(Cl)cn1 [Compound 43] | 30
